B1: tRNA (parent)
chain: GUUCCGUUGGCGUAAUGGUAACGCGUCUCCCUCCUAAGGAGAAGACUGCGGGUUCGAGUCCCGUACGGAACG

variants of: B1; experiment: yeast fitness relative to wild type (ratio to wild type); higher = fitter; tRNA-Arg(CCU), competitive growth, 37 C, YPD
Variants at the floor of the assay were thinned out.
Lab note: anything with yeast fitness at or over 0.7 counts as 1.0; the rest go in 0.0.

{"columns": ["VARIANT STRING", "CLASS NAME"],
 "data": [
  ["U8G C46A C55A", 0.0]
]}

Does the variant A43U C61U have recorded yeast fitness that is 0.7 or more? 1.0

Does the variant A21U C29U have recorded yeast fitness that is 0.7 or more? 0.0

Does the variant G12A U28G U35C have recorded yeast fitness that is 0.7 or more? 0.0

Does the variant C22G C27U A70U have recorded yeast fitness that is 0.7 or more? 0.0

Does the variant A45C G52C have recorded yeast fitness that is 0.7 or more? 1.0

Does the variant C34G A42C have recorded yeast fitness that is 0.7 or more? 0.0

Does the variant G18A U64C have recorded yeast fitness that is 0.7 or more? 0.0

Does the variant G9C C46U A65U A69U have recorded yeast fitness that is 0.7 or more? 0.0

Does the variant C29G A43G U64C have recorded yeast fitness that is 0.7 or more? 0.0

Does the variant G10C A14C C62U have recorded yeast fitness that is 0.7 or more? 0.0

Does the variant G12A A20U G23C U32C A69G have recorded yeast fitness that is 0.7 or more? 0.0

Does the variant U19A C30G A36G C61G have recorded yeast fitness that is 0.7 or more? 0.0

Does the variant C11U C62U A70G have recorded yeast fitness that is 0.7 or more? 1.0

Does the variant A15G A20C U54A have recorded yeast fitness that is 0.7 or more? 0.0

Does the variant U59G A65U have recorded yeast fitness that is 0.7 or more? 1.0
